# Test system: Escherichia coli TOP10
# experiment.summary: shrunken log2 fold change of peptide-encoding DNA abundance (4.5 h post-induction vs induction); higher = less antimicrobial activity (less host growth inhibition)
# condition.info: time post-induction: 4.5 h; library: site-saturation at positions 5, 18, 19, 20
Recorded shrunken log2 fold change for the following sequences
Answer with a bare number; do not write a unit.

{"columns": ["seq", "assay.value"],
 "data": [
  ["RRIRQRPPRLPRPRPRPTKRPRP", 0.254],
  ["RRIRTRPPRLPRPRPRPLDNPRP", -0.396],
  ["RRIRFRPPRLPRPRPRPQSWPRP", -0.0287],
  ["RRIRKRPPRLPRPRPRPIFWPRP", 0.313],
  ["RRIRARPPRLPRPRPRPEYHPRP", 0.0454],
  ["RRIRKRPPRLPRPRPRPMWYPRP", 0.0551]
]}

Problem: # query: shrunken log2 fold change of entry RRIRWRPPRLPRPRPRPDAYPRP
Solution: 0.309

Problem: # query: shrunken log2 fold change of entry RRIRSRPPRLPRPRPRPTRSPRP
Solution: 0.784

Problem: # query: shrunken log2 fold change of entry RRIRRRPPRLPRPRPRPWARPRP
Solution: 0.222

Problem: # query: shrunken log2 fold change of entry RRIRARPPRLPRPRPRPHEPPRP
Solution: 0.00298

Problem: # query: shrunken log2 fold change of entry RRIRMRPPRLPRPRPRPRTNPRP
Solution: 0.295

Problem: # query: shrunken log2 fold change of entry RRIRARPPRLPRPRPRPINKPRP
Solution: -0.311

====

Recorded shrunken log2 fold change for the following sequences
# Tested on: Escherichia coli TOP10
# experiment.summary: shrunken log2 fold change of peptide-encoding DNA abundance (4.5 h post-induction vs induction); higher = less antimicrobial activity (less host growth inhibition)
# condition.info: time post-induction: 4.5 h; library: site-saturation at positions 5, 18, 19, 20
Answer with a bare number; do not write a unit.

Some solved entries appear below for comparison.
{"columns": ["seq", "assay.value"],
 "data": [
  ["RRIRERPPRLPRPRPRPIKFPRP", -0.0529],
  ["RRIRARPPRLPRPRPRPSLYPRP", 0.0269]
]}

Problem: Field: shrunken log2 fold change (Escherichia coli TOP10). Entry: RRIRARPPRLPRPRPRPHCHPRP
Solution: -0.195

Problem: Field: shrunken log2 fold change (Escherichia coli TOP10). Entry: RRIRVRPPRLPRPRPRPNETPRP
Solution: -0.033

Problem: Field: shrunken log2 fold change (Escherichia coli TOP10). Entry: RRIRMRPPRLPRPRPRPEDWPRP
Solution: 3.63

Problem: Field: shrunken log2 fold change (Escherichia coli TOP10). Entry: RRIRPRPPRLPRPRPRPCWFPRP
Solution: -0.0933

Problem: Field: shrunken log2 fold change (Escherichia coli TOP10). Entry: RRIRPRPPRLPRPRPRPKHIPRP
Solution: -0.301

Problem: Field: shrunken log2 fold change (Escherichia coli TOP10). Entry: RRIRIRPPRLPRPRPRPQQWPRP
Solution: -0.421

Problem: Field: shrunken log2 fold change (Escherichia coli TOP10). Entry: RRIRNRPPRLPRPRPRPLTSPRP
Solution: -0.0977

Problem: Field: shrunken log2 fold change (Escherichia coli TOP10). Entry: RRIRVRPPRLPRPRPRPTWMPRP
Solution: 0.0438

Problem: Field: shrunken log2 fold change (Escherichia coli TOP10). Entry: RRIRCRPPRLPRPRPRPKPGPRP
Solution: 0.503

Problem: Field: shrunken log2 fold change (Escherichia coli TOP10). Entry: RRIRHRPPRLPRPRPRPQERPRP
Solution: -0.0325

Problem: Field: shrunken log2 fold change (Escherichia coli TOP10). Entry: RRIRFRPPRLPRPRPRPEGDPRP
Solution: 0.0402

Problem: Field: shrunken log2 fold change (Escherichia coli TOP10). Entry: RRIRCRPPRLPRPRPRPKTMPRP
Solution: -0.172

Problem: Field: shrunken log2 fold change (Escherichia coli TOP10). Entry: RRIRLRPPRLPRPRPRPRFTPRP
Solution: 0.0165

Problem: Field: shrunken log2 fold change (Escherichia coli TOP10). Entry: RRIRRRPPRLPRPRPRPHSEPRP
Solution: 0.0888

Problem: Field: shrunken log2 fold change (Escherichia coli TOP10). Entry: RRIRFRPPRLPRPRPRPWLLPRP
Solution: -0.343

====

# Tested on: Escherichia coli TOP10
# experiment.summary: shrunken log2 fold change of peptide-encoding DNA abundance (4.5 h post-induction vs induction); higher = less antimicrobial activity (less host growth inhibition)
# condition.info: time post-induction: 4.5 h; library: site-saturation at positions 5, 18, 19, 20
observation.type: shrunken log2 fold change

Some solved entries appear below for comparison.
{"columns": ["seq", "shrunken log2 fold change"],
 "data": [
  ["RRIRMRPPRLPRPRPRPEMYPRP", 0.216],
  ["RRIRERPPRLPRPRPRPQYQPRP", -1.12],
  ["RRIRERPPRLPRPRPRPECFPRP", 0.435],
  ["RRIRDRPPRLPRPRPRPWALPRP", -0.000578],
  ["RRIRIRPPRLPRPRPRPLEHPRP", -0.105],
  ["RRIRGRPPRLPRPRPRPWGEPRP", 0.285],
  ["RRIRCRPPRLPRPRPRPHLTPRP", -0.229],
  ["RRIRLRPPRLPRPRPRPAINPRP", -0.157]
]}

Problem: # query: shrunken log2 fold change of entry RRIRARPPRLPRPRPRPKLEPRP
Solution: 0.623

Problem: # query: shrunken log2 fold change of entry RRIRMRPPRLPRPRPRPGPAPRP
Solution: 1.71

Problem: # query: shrunken log2 fold change of entry RRIRQRPPRLPRPRPRPKITPRP
Solution: -0.0282

Problem: # query: shrunken log2 fold change of entry RRIRCRPPRLPRPRPRPDISPRP
Solution: 0.0772

Problem: # query: shrunken log2 fold change of entry RRIRVRPPRLPRPRPRPYNKPRP
Solution: -0.707

Problem: # query: shrunken log2 fold change of entry RRIRDRPPRLPRPRPRPKVTPRP
Solution: -0.0277

Problem: # query: shrunken log2 fold change of entry RRIRWRPPRLPRPRPRPNGAPRP
Solution: 0.161

Problem: # query: shrunken log2 fold change of entry RRIRHRPPRLPRPRPRPGCDPRP
Solution: 0.123

Problem: # query: shrunken log2 fold change of entry RRIRFRPPRLPRPRPRPICNPRP
Solution: -0.424

Problem: # query: shrunken log2 fold change of entry RRIRFRPPRLPRPRPRPTQLPRP
Solution: 0.364

Problem: # query: shrunken log2 fold change of entry RRIRNRPPRLPRPRPRPCYAPRP
Solution: -0.424

====

# Test system: Escherichia coli TOP10
# experiment.summary: shrunken log2 fold change of peptide-encoding DNA abundance (4.5 h post-induction vs induction); higher = less antimicrobial activity (less host growth inhibition)
# condition.info: time post-induction: 4.5 h; library: site-saturation at positions 5, 18, 19, 20
Bucketed by reported shrunken log2 fold change, buckets being low interval = under -0.08, middle interval = from -0.08 up to 0.1, high interval = 0.1 and over

Example cases with answers are listed next.
{"columns": ["seq", "category"],
 "data": [
  ["RRIRNRPPRLPRPRPRPVPTPRP", "high interval"],
  ["RRIRPRPPRLPRPRPRPMPFPRP", "low interval"],
  ["RRIRKRPPRLPRPRPRPCCWPRP", "high interval"]
]}

Problem: Class label required: RRIRVRPPRLPRPRPRPWDGPRP
Solution: middle interval

Problem: Class label required: RRIRWRPPRLPRPRPRPMFNPRP
Solution: low interval

Problem: Class label required: RRIRLRPPRLPRPRPRPYNYPRP
Solution: low interval

Problem: Class label required: RRIRLRPPRLPRPRPRPDQDPRP
Solution: low interval

Problem: Class label required: RRIRKRPPRLPRPRPRPDACPRP
Solution: middle interval

====

# System: Escherichia coli TOP10;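 note: peptides expressed intracellularly from a pBAD plasmid library in pooled LB shake-flask culture, induced with 0.3% L-arabinose, DNA abundance read by NGS, three biological replicates, DESeq2 with apeglm shrinkage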
# experiment.summary: shrunken log2 fold change of peptide-encoding DNA abundance (4.5 h post-induction vs induction); higher = less antimicrobial activity (less host growth inhibition)
# condition.info: time post-induction: 4.5 h; library: site-saturation at positions 5, 18, 19, 20
Recorded shrunken log2 fold change for the following sequences
Answer with a bare number; do not write a unit.

Problem: # query: shrunken log2 fold change of entry RRIRYRPPRLPRPRPRPGMVPRP
Solution: 2

Problem: # query: shrunken log2 fold change of entry RRIRNRPPRLPRPRPRPYDSPRP
Solution: -0.284

Problem: # query: shrunken log2 fold change of entry RRIRPRPPRLPRPRPRPYPYPRP
Solution: -0.124

Problem: # query: shrunken log2 fold change of entry RRIRMRPPRLPRPRPRPYIHPRP
Solution: -0.262

Problem: # query: shrunken log2 fold change of entry RRIRVRPPRLPRPRPRPPKYPRP
Solution: -0.416
